Provenance of the data: patent US9751858B2

Here, each record is paired with measured IC50 data.
measuredOn: Recombinant human cathepsin A (Homo sapiens)
Construct: Recombinant human cathepsin A (residues 29-480, with a C-terminal 10-His tag); 10-His (C)
procedureText: Cathepsin A inhibitory activity
conditionsUsed: activated recombinant human cathepsin A 833 ng/ml, Bodipy FL-labeled bradykinin 2 μM, pH 5.5, 15 min room temperature

entrySmiles: Cc1ccc([C@H](CC(=O)O)NC(=O)c2noc(-c3ccccc3F)n2)cc1
IC50: > 10 µM
--
entrySmiles: O=C(O)C[C@H](NC(=O)c1noc(-c2ccccc2F)n1)c1ccccc1F
IC50: > 10 µM
--
entrySmiles: Cc1ccccc1[C@H](CC(=O)O)NC(=O)c1nc(C2CC2)n(-c2ccccc2Cl)n1
IC50: > 10 µM
--
entrySmiles: Cc1ccccc1[C@H](CC(=O)O)NC(=O)c1noc(-c2ccccc2F)n1
IC50: 4.92 µM
--
entrySmiles: Cc1ccc([C@H](CC(=O)O)NC(=O)c2nc(C3CC3)n(-c3ccccc3Cl)n2)cc1
IC50: > 10 µM
--
entrySmiles: O=C(O)C[C@@H](Cc1ccccc1)NC(=O)CCc1nc(-c2ccccc2F)no1
IC50: > 10 µM

* * *

Here, each record is paired with measured IC50 data.
measuredOn: Recombinant human cathepsin A (Homo sapiens, UniProt P10619)
Construct: Recombinant human cathepsin A (residues 29-480, with a C-terminal 10-His tag); 10-His (C)
Sequence (P10619 29-326 limits assumed): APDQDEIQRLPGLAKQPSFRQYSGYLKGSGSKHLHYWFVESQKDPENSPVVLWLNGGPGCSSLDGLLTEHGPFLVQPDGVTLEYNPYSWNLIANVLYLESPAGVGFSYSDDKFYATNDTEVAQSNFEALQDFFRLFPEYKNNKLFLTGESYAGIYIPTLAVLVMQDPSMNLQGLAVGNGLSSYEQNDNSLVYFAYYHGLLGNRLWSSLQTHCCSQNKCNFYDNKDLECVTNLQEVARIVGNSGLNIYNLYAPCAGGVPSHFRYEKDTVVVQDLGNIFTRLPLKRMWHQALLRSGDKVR
Sequence (P10619 327-480 limits assumed): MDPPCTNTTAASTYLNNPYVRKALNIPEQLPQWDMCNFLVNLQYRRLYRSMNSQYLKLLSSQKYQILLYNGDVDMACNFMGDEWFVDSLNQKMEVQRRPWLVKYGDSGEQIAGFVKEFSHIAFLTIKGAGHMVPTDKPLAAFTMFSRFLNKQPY
procedureText: Cathepsin A inhibitory activity
conditionsUsed: activated recombinant human cathepsin A 833 ng/ml, Bodipy FL-labeled bradykinin 2 μM, pH 5.5, 15 min room temperature
attributeMeasured: IC50

entrySmiles: Cc1cccc([C@H](CC(=O)O)NC(=O)c2noc(-c3ccccc3F)n2)c1
observedResult: > 10 µM
--
entrySmiles: Cc1ccccc1[C@H](CC(=O)O)NC(=O)c1noc(-c2cccc(F)c2F)n1
observedResult: > 10 µM
--
entrySmiles: C[C@@](CC(=O)O)(NC(=O)CCc1nc(-c2ccccc2F)no1)c1ccccc1
observedResult: > 10 µM
